# Lookup of reported enrichment ratio keyed by entry
B1: PhoQ; a variant is named by its letters at X, in order, P23837 (parent)
chain: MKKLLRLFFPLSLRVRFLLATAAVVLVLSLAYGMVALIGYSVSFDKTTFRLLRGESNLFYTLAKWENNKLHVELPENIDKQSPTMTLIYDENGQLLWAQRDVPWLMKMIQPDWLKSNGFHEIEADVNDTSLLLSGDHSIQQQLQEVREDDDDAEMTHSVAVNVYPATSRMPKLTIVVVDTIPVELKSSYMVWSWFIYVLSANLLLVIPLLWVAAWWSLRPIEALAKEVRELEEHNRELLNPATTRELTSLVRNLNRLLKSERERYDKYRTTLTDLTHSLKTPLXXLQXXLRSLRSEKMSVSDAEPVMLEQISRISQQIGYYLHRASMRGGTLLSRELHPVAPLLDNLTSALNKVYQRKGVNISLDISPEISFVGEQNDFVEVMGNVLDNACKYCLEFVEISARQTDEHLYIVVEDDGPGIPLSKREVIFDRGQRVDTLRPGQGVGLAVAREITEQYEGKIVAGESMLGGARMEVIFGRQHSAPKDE

variants of: B1; experiment: enrichment ratio after two sorts for PhoP signalling (ratio (wild type AVST 3.29)); higher = more functional; details: with PhoP (E. coli)
The full ranking holds about 140,000 sequences; the median of “enrichment ratio after two sorts for PhoP signalling” is about 0, and the highest 2% start at about 11. Many of the other results were omitted from the sample, so the highest values are more common in it than they were.

VARIANT | enrichment ratio
SFYL | ≤ 0.25
MSYI | 12.1
MAFQ | 24.4
LHYP | ≤ 0.25
NHQY | ≤ 0.25
TQII | 15.7
HAFN | ≤ 0.25
MSCI | 16.7
ILRI | ≤ 0.25
ISHC | ≤ 0.25
NECG | ≤ 0.25
TEAI | 20.4
MVNN | ≤ 0.25
QNET | ≤ 0.25
RSFL | ≤ 0.25
MSWM | 23.7
YFRP | ≤ 0.25
RNTM | ≤ 0.25
DWSY | ≤ 0.25
FFRS | ≤ 0.25
VEMG | 6.39
SHQY | ≤ 0.25
RLCT | ≤ 0.25
NEAI | ≤ 0.25
FFRE | ≤ 0.25
THQY | 15
IQYT | ≤ 0.25
FQII | ≤ 0.25
MSPI | ≤ 0.25
NECQ | ≤ 0.25
MSTA | ≤ 0.25
TECI | 2.38
VANQ | ≤ 0.25
VMPF | ≤ 0.25
QRWS | ≤ 0.25
LAAY | ≤ 0.25
TEGQ | ≤ 0.25
MSCS | 0.763
TQID | ≤ 0.25
MSWI | 14.1
MSYK | ≤ 0.25
TECA | 0.528
QPWS | ≤ 0.25
PSYG | ≤ 0.25
MERT | ≤ 0.25
STYI | ≤ 0.25
